Listed next: entries and their corresponding pKd.
# TESTED ON: HopU1 (Pseudomonas syringae, UniProt Q88A91 1-264)
# MEASUREMENT NOTES: MST
# EXPERIMENTAL CONTEXT: protein: recombinant; tags: C-terminal His6 (pET22b NdeI/XhoI, Ni-NTA; tag position implied by vector)
pKd: −log10 of the molar value.

BINDER	pKd
H2 RNA aptamer (structured_RNA) RNA: GCCACCAACGACAUUACGCAUUGCUUCUAAAGGGUGUGCCGUUGAUAUAAAUAGUGCCCAU	8.19
H1 RNA aptamer (structured_RNA) RNA: GCCACCAACGACAUUUUGUCAAUCUGUAGAAAAAAUCAGGGUUGAUAUAAAUAGUGCCCAU	8.17

Data provenance is paper PMC10705891.
